B1: PCDHGA10 (parent)
chain: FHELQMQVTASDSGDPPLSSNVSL

Variants of: B1
Assay: protein stability index of a GFP-peptide fusion (GPS, HEK-293T) (PSI 1-6); higher = more stable;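 note: lentivirally expressed fusions sorted by FACS into six bins by GFP to DsRed ratio, PSI derived from sequencing read proportions per bin multiplied by bin number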
Conditions: c terminus: a fixed tail appended
VALUE KIND: protein stability index
Could you respond with only the numeric value?

// sample `V22Y` , its protein stability index was 2.56

Data point: `M6S` ; protein stability index = 3.29

Please fill in: protein stability index reported for `P16V` = 2.21

The variant `Q7E` showed protein stability index equal to 2.54
